Known inhibition at 50 µM of a selection of compounds
# Tested on: S. aureus ATCC 25923
# Assay overview: Antibacterial activity, post-exposure on preformed 18-h-old biofilms
# Format: cell-based, Staphylococcus aureus
# Measurement parameters: Staphylococcus aureus, ATCC25923, 50 µM, ± SD, read-out: Average inhibition %, biofilms biomass
Readout name: inhibition at 50 µM (%)

INSERT INTO results (compound, readout_name, observed_measurement) VALUES
  ('CCCCCCCCc1ccc(CC(N)(CO)CO)cc1 [Compound 44]', 'inhibition at 50 µM', 51.6),
  ('CCCCCCCCCCc1ccc(CCC(N)(CO)CO)nc1 [Compound 62]', 'inhibition at 50 µM', 63.9),
  ('CCCCCCCCCCc1ccc2nc(CCC(N)(CO)CO)ccc2c1 [Compound 81]', 'inhibition at 50 µM', 28.5),
  ('CCCCCCCCc1ccc2ccc(CC(N)(CO)CO)nc2c1 [Compound 82]', 'inhibition at 50 µM', 51.6),
  ('CCCCCCCCCCc1ccc2nc(CC(N)(CO)CO)ccc2c1 [Compound 83]', 'inhibition at 50 µM', 50.3),
  ('CCCCCCCCCCOc1ccc(CCC(N)(CO)CO)cc1 [Compound 49]', 'inhibition at 50 µM', 41.6),
  ('CCCCCCCCc1ccc(C(O)CC(N)(CO)CO)cc1 (stereo not shown) [Compound 54]', 'inhibition at 50 µM', 55.3),
  ('CCCCCCCCc1ccc2cc(CC(N)(CO)CO)ccc2c1 [Compound 79]', 'inhibition at 50 µM', 29.7),
  ('CCCCCCCCc1ccc2nc(CCC(N)(CO)CO)ccc2c1 [Compound 80]', 'inhibition at 50 µM', 50.2),
  ('CCCCCCCCc1ccc(CCC(N)(CO)CO)cc1 [fingolimod, Fingolimod]', 'inhibition at 50 µM', 60.7),
  ('CCCCCC/C=C/c1ccc(CCC(N)(CO)CO)cc1 [Compound 42]', 'inhibition at 50 µM', 54.1),
  ('CCCCCCCCOc1ccc(CCC(N)(CO)CO)cc1 [Compound 48]', 'inhibition at 50 µM', 57.8),
  ('CCCCCCCCCCc1ccc(CCC(N)(CO)CO)cc1 [Compound 11]', 'inhibition at 50 µM', 35.4),
  ('CCCCCCCCc1cccc(CCC(N)(CO)CO)c1 [Compound 43]', 'inhibition at 50 µM', 50.1),
  ('CCCCCCCCCCc1ccc(C(O)CC(N)(CO)CO)cc1 (stereo not shown) [Compound 55]', 'inhibition at 50 µM', 63.1),
  ('CCCCCc1ccc(-c2ccc(CCC(N)(CO)CO)cc2)cc1 [Compound 15]', 'inhibition at 50 µM', 44.9);
